Attribution: the supplement of paper PMC3334620

# measuredTarget: Cad1 (UniProt P24813)
# Sequence: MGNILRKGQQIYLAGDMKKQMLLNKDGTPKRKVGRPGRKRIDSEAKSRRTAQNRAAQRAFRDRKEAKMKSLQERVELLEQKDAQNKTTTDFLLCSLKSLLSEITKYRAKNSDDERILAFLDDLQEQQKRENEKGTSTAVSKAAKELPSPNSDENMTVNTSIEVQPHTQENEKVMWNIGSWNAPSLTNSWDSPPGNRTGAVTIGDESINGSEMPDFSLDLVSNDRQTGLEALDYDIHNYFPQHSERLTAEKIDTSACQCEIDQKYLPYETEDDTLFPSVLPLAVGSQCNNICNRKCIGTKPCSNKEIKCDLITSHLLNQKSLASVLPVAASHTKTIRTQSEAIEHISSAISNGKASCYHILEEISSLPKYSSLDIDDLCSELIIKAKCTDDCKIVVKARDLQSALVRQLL
# measurementNotes: PBM E-score (8-mer binding enrichment) (E-score (-0.5 to 0.5)); higher = stronger / more preferred TF binding
# conditionParameters: protein concentration: 100 nM; construct: GST-full length
Whole data set: some 33,000 sequences, median “E-score (-0.5 to 0.5)” near -0.0014, cut for the highest 2% near 0.25. The full list was thinned out, with the highest values kept by preference.
Use PBM E-score to assign classes; range list: low bin (below 0.0004), mid bin (0.0004 to below 0.2), high bin (0.2 or more)

Please review the following examples before continuing.
Inquiry: Textbook exercise: identify the category of the sequence given here, CAGCGGGC , according to its measured value.
Reply text: mid bin

Inquiry: Textbook exercise: identify the category of the sequence given here, ATCCGTTC , according to its measured value.
Reply text: high bin

Inquiry: Textbook exercise: identify the category of the sequence given here, ACCGCGAG , according to its measured value.
Reply text: low bin

Further cases:
Inquiry: Textbook exercise: identify the category of the sequence given here, TCCGCGGA , according to its measured value.
Reply text: high bin

Inquiry: Textbook exercise: identify the category of the sequence given here, CGGGTGGA , according to its measured value.
Reply text: low bin

Inquiry: Textbook exercise: identify the category of the sequence given here, CACTAATG , according to its measured value.
Reply text: low bin

Inquiry: Textbook exercise: identify the category of the sequence given here, GTTAATAA , according to its measured value.
Reply text: high bin

Inquiry: Textbook exercise: identify the category of the sequence given here, ATAGGCGC , according to its measured value.
Reply text: mid bin

Inquiry: Textbook exercise: identify the category of the sequence given here, AATAATCA , according to its measured value.
Reply text: high bin

Inquiry: Textbook exercise: identify the category of the sequence given here, GTCTGCTA , according to its measured value.
Reply text: high bin

====

# measuredTarget: Cad1 (UniProt P24813)
# Sequence: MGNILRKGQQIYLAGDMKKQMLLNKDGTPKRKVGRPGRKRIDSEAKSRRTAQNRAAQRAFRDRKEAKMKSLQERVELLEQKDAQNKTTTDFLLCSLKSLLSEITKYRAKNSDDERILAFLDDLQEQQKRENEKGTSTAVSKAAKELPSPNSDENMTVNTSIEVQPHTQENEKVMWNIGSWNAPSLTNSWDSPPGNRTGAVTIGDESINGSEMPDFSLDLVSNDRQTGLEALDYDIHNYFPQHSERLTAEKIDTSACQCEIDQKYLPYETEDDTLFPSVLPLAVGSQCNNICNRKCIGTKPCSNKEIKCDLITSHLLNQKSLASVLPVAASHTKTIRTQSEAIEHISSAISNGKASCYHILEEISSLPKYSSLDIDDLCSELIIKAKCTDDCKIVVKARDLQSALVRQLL
# measurementNotes: PBM E-score (8-mer binding enrichment) (E-score (-0.5 to 0.5)); higher = stronger / more preferred TF binding
# conditionParameters: protein concentration: 100 nM; construct: GST-full length
In all, about 33,000 sequences were measured (“E-score (-0.5 to 0.5)”: median about -0.0014, highest 2% from about 0.25 on). The entries come from a sample that favours the highest values as a whole.
# maps each entry to its PBM E-score
Give only the figure.

The examples below pair each entry with its known result.
Inquiry: Form field: PBM E-score recorded for CGGGACTA with Cad1 (UniProt P24813) (enter value)
Reply text: -0.22

Inquiry: Form field: PBM E-score recorded for GATCCTAC with Cad1 (UniProt P24813) (enter value)
Reply text: 0.00192

Inquiry: Form field: PBM E-score recorded for ACGTAATG with Cad1 (UniProt P24813) (enter value)
Reply text: 0.147

Inquiry: Form field: PBM E-score recorded for CTACTTCA with Cad1 (UniProt P24813) (enter value)
Reply text: -0.0482

Inquiry: Form field: PBM E-score recorded for CCGTAATA with Cad1 (UniProt P24813) (enter value)
Reply text: 0.113

Inquiry: Form field: PBM E-score recorded for AATCATAC with Cad1 (UniProt P24813) (enter value)
Reply text: 0.0986

Inquiry: Form field: PBM E-score recorded for GCGCATTA with Cad1 (UniProt P24813) (enter value)
Reply text: 0.265

Inquiry: Form field: PBM E-score recorded for AAGCAGAG with Cad1 (UniProt P24813) (enter value)
Reply text: -0.111

Inquiry: Form field: PBM E-score recorded for ATACGTAC with Cad1 (UniProt P24813) (enter value)
Reply text: -0.0354

Inquiry: Form field: PBM E-score recorded for CCGCATTA with Cad1 (UniProt P24813) (enter value)
Reply text: 0.172

Further cases:
Inquiry: Form field: PBM E-score recorded for GTTACAAA with Cad1 (UniProt P24813) (enter value)
Reply text: 0.223

Inquiry: Form field: PBM E-score recorded for CCAAATCA with Cad1 (UniProt P24813) (enter value)
Reply text: -0.041

Inquiry: Form field: PBM E-score recorded for CAAAGAGA with Cad1 (UniProt P24813) (enter value)
Reply text: -0.113

====

# maps each entry to its PBM E-score
# measuredTarget: Cad1 (UniProt P24813)
# Sequence: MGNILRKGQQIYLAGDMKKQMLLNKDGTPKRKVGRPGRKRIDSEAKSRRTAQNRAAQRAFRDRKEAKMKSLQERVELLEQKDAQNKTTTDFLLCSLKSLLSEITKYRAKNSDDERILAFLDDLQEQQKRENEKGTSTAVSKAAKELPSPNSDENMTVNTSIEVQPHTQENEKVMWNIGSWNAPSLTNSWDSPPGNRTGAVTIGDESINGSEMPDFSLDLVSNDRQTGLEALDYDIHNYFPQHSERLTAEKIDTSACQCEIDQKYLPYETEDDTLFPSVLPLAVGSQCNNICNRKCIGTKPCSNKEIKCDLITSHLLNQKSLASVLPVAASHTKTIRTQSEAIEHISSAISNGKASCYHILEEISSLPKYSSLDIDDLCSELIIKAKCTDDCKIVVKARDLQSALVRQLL
# measurementNotes: PBM E-score (8-mer binding enrichment) (E-score (-0.5 to 0.5)); higher = stronger / more preferred TF binding
# conditionParameters: protein concentration: 100 nM; construct: GST-full length
Whole data set: some 33,000 sequences, median “E-score (-0.5 to 0.5)” near -0.0014, cut for the highest 2% near 0.25. The entries come from a sample that favours the highest values as a whole.
Give only the figure.

The examples below pair each entry with its known result.
Inquiry: Recorded PBM E-score for ACTTAGTG , please?
Reply text: -0.142

Inquiry: Recorded PBM E-score for AATCGCAT , please?
Reply text: 0.0873

Inquiry: Recorded PBM E-score for CATTAGTC , please?
Reply text: 0.217

Inquiry: Recorded PBM E-score for AGGATAGA , please?
Reply text: -0.0415

Inquiry: Recorded PBM E-score for CGTTAGTA , please?
Reply text: 0.289

Further cases:
Inquiry: Recorded PBM E-score for AAGGCCAT , please?
Reply text: 0.0298

Inquiry: Recorded PBM E-score for CGCAGATC , please?
Reply text: 0.098

Inquiry: Recorded PBM E-score for ATGACGTC , please?
Reply text: 0.0734

====

# measuredTarget: Cad1 (UniProt P24813)
# Sequence: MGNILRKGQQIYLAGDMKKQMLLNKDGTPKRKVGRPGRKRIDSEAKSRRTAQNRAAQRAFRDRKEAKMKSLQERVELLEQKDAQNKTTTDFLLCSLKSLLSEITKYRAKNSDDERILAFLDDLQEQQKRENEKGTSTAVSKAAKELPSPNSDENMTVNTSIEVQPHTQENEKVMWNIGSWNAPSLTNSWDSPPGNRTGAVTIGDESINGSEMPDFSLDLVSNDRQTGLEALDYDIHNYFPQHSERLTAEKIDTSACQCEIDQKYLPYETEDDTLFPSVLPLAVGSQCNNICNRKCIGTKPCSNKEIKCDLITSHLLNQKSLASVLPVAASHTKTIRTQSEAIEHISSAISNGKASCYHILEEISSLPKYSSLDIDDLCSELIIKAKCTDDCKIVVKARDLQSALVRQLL
# measurementNotes: PBM E-score (8-mer binding enrichment) (E-score (-0.5 to 0.5)); higher = stronger / more preferred TF binding
# conditionParameters: protein concentration: 100 nM; construct: GST-full length
Whole data set: some 33,000 sequences, median “E-score (-0.5 to 0.5)” near -0.0014, cut for the highest 2% near 0.25. Only a selection was taken, and the highest values are over-represented in it overall.
testReadout: PBM E-score
Give only the figure.

The examples below pair each entry with its known result.
Inquiry: Recorded PBM E-score for GCATTAAA , please?
Reply text: 0.103

Inquiry: Recorded PBM E-score for TGGAGTAA , please?
Reply text: 0.149

Inquiry: Recorded PBM E-score for ATATTAAG , please?
Reply text: 0.115

Inquiry: Recorded PBM E-score for CTTGCAAA , please?
Reply text: 0.105

Note: attention shifts to another entry.
Inquiry: Recorded PBM E-score for TTAATAAA , please?
Reply text: 0.389
